Answer each item with its documented pIC50.
- System tested: T1, N-terminally FLAG-tagged mouse Ang2 (HEK293T conditioned medium) (mouse, UniProt O35608 19-496)
- T1 construct: may be a nucleotide entry; also called mAng2; FLAG-mAng2
- T1 sequence: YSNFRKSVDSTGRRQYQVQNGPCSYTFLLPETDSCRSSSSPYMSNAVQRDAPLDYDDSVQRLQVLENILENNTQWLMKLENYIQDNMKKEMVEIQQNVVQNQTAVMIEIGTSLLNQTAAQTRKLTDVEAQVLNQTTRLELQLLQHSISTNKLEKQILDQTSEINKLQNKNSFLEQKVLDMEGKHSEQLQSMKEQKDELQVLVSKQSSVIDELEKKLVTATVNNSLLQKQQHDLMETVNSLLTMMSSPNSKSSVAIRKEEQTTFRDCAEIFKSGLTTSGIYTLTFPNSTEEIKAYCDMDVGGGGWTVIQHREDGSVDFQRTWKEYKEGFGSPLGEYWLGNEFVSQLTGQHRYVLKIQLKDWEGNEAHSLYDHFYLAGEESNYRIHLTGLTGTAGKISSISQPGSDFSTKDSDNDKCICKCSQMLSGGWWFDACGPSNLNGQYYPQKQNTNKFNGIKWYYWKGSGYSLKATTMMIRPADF
- Assay protocol: competition ELISA, FLAG-mAng2 on coated mTie2-Fc
Numbers only, as −log10 of the molar value.

Solved entries (count: 3):
[
  {
    "Binder": "VHH 3F02 (VHH, also called 003F02; not shown: C-terminal c-myc tag and His6 tag) VHH: EVQLVESGGGLVQVGDSLRLACAASGRTFSTYLMVGWFRQAPGKEREFAAGIWSSGDTAYADSVKGRFTISRDNAKNTVYLQMNSLKTEDTAVYYCAGSYDGNYYIPGFYKDWGQGTQVTVSS",
    "pIC50": 7.49
  },
  {
    "Binder": "VHH 1D01 (VHH, also called 001D01; not shown: C-terminal c-myc tag and His6 tag) VHH: EVQLVESGGGLVQAGGSLRLSCAASGFTFDDYALGWFRQAAGKEREGVSCIRCSDGSTYYADSVKGRFTISSDNAKNTVYLQMNSLKPEDTAVYYCAASIVPRSKLEPYEYDAWGQGTQVTVSS",
    "pIC50": 8.20
  },
  {
    "Binder": "VHH 15H04 (VHH, also called 015H04; not shown: C-terminal c-myc tag and His6 tag) VHH: EVQLVESGGGLVQAGGSLGLSCAASERTLPSYVMGWFRQAPGKELEFVAGISWSSGRTYYTDSVKGRFTISRDAAENTWYLQMNSLKPEDTAVYYCASNSVSEPTLHTWQYEASYDYWGQGTQVTVSS",
    "pIC50": 6.90
  }
]

// query Entry VHH 8A11 (VHH, also called 008A11; not shown: C-terminal c-myc tag and His6 tag) VHH: EVQLVESGGGLVQAGGSLRLSCAASGRTFSSYAMGWFRQAPGKELEFVTAVSWSGGSTYYADSVKGRFTISRDSAKNTVYLQMNSLKPEDTAVYYCAAQSTIVEVTTLEAYDYWGQGTQVTVSS needs its pIC50 filled in; supply it.
// result 6.35
